# Test target: CYP2C9 (Homo sapiens)
# Measurement description: Inhibition of CYP2C9-catalyzed diclofenac 4-hydroxylation in pooled human liver microsomes
# Format: in vitro ADME
# Design: incubation mixtures containing pooled human liver microsomes (HLMs, XTreme 200, XenoTech); tissue XenoTech XTreme 200; host or cells: pooled human liver microsomes
# Cond: human, pooled human liver microsomes, probe diclofenac; inhibitor 5 μM; pooled HLMs
Readout: inhibition at 10 min, 5 µM

Any idea what inhibition at 10 min, 5 µM was measured for CC(C)(O)c1ccccc1CC[C@@H](SCC1(CC(=O)O)CC1)c1cccc(/C=C/c2ccc3ccc(Cl)cc3n2)c1 [montelukast, reference compound] ?
31%

====

# Test target: CYP2C9 (Homo sapiens, UniProt P11712)
# Sequence (P11712 whole entry): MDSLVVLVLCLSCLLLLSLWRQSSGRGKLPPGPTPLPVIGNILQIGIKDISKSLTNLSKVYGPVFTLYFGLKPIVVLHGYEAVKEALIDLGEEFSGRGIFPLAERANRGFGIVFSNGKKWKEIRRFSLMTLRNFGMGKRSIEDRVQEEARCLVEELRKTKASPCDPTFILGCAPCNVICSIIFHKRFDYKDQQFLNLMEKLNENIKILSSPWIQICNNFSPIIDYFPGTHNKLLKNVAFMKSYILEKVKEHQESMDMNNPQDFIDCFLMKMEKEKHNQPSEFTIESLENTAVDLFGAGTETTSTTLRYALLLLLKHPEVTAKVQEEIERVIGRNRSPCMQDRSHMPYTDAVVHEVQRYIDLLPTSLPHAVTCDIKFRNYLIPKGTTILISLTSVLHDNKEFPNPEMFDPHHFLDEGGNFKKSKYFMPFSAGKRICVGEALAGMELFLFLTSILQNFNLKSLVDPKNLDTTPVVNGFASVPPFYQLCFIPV
# Measurement description: Time-dependent inhibition (IC50 shift) of CYP2C9, diclofenac, human liver microsomes
# Type: in vitro ADME
# Set-up: incubation mixtures containing pooled human liver microsomes (HLMs, XTreme 200, XenoTech); tissue XenoTech XTreme 200; host or cells: pooled human liver microsomes
# Cond: human, human liver microsomes, probe diclofenac (10 μM); no NADPH pre-incubation; read-out: IC50, CYP2C9 diclofenac, untreated HLMs
Readout: IC50 at 10 min (nM)
Your answer is read as nM, so omit the unit and give the number.

Any idea what IC50 at 10 min was measured for O=C1CC(c2cc(-c3c(O)ccc4c(=O)cc(-c5ccc(O)cc5)oc34)c(O)cc2O)Oc2cc(O)cc(O)c21 (stereo not shown) [selamariscina A] ?
54

====

The following molecules each carry a recorded pIC50 for CYP2E1 (Homo sapiens).
Kindly note that pIC50 refers to -log10 of the concentration in mol/L and answer with the value alone.

>>> measurement("O=c1cc(-c2ccc(O)c(-c3c(O)cc(O)c4c(=O)cc(-c5ccc(O)cc5)oc34)c2)oc2cc(O)cc(O)c12")
5.48
>>> measurement("O=c1cc(-c2ccc(O)c(-c3c(-c4ccc(O)cc4)oc4cc(O)cc(O)c4c3=O)c2)oc2cc(O)cc(O)c12")
5.22

Param readout = pIC50; param system = CYP2E1 (Homo sapiens); param query = O=c1cc(-c2ccc(O)c(-c3c(O)cc4oc(-c5ccc(O)cc5)cc(=O)c4c3O)c2)oc2cc(O)cc(O)c12 ; response: value
Sequence (P05181 whole entry): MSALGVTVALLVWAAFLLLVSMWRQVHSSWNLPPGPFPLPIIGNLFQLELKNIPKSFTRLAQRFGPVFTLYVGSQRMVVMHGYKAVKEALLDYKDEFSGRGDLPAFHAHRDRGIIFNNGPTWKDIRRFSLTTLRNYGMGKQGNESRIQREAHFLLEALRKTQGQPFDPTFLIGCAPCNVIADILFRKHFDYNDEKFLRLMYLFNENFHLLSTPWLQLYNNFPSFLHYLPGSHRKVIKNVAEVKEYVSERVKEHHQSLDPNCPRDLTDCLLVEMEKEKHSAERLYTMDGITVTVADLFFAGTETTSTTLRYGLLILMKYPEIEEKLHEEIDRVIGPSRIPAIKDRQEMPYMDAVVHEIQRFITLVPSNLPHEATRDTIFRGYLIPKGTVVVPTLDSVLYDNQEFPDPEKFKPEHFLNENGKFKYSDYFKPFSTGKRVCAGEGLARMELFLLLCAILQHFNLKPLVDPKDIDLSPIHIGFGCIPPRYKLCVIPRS
5.54

====

# Test target: CYP2C9 (Homo sapiens, UniProt P11712)
# Measurement description: Inhibition of CYP2C9-catalyzed diclofenac 4-hydroxylation in pooled human liver microsomes
# Type: in vitro ADME
# Design: incubation mixtures containing pooled human liver microsomes (HLMs, XTreme 200, XenoTech); tissue XenoTech XTreme 200; host or cells: pooled human liver microsomes
# Cond: human, pooled human liver microsomes, probe diclofenac; inhibitor 0.5 μM; pooled HLMs
Readout: inhibition at 10 min, 0.5 µM (%)
Your answer is read as %, so omit the unit and give the number.

Any idea what inhibition at 10 min, 0.5 µM was measured for O=C1CC(c2cc(-c3c(O)ccc4c(=O)cc(-c5ccc(O)cc5)oc34)c(O)cc2O)Oc2cc(O)cc(O)c21 (stereo not shown) [selamariscina A] ?
88.6

====

# System: the other eight P450 enzymes (isoforms other than CYP2C8)
# Measurement description: Nine-P450 cocktail inhibition in human liver microsomes, statements on the other P450 isoforms
# Type: in vitro ADME
# Cond: human, pooled human liver microsomes; isoforms other than CYP2C8; HLMs
Readout: IC50 at 10 min

Any idea what IC50 at 10 min was measured for CC(C)(O)c1ccccc1CC[C@@H](SCC1(CC(=O)O)CC1)c1cccc(/C=C/c2ccc3ccc(Cl)cc3n2)c1 [montelukast, reference compound] ?
> 9.73 µM

====

# Test target: CYP3A (Homo sapiens)
# Sequence (P08684 2-503): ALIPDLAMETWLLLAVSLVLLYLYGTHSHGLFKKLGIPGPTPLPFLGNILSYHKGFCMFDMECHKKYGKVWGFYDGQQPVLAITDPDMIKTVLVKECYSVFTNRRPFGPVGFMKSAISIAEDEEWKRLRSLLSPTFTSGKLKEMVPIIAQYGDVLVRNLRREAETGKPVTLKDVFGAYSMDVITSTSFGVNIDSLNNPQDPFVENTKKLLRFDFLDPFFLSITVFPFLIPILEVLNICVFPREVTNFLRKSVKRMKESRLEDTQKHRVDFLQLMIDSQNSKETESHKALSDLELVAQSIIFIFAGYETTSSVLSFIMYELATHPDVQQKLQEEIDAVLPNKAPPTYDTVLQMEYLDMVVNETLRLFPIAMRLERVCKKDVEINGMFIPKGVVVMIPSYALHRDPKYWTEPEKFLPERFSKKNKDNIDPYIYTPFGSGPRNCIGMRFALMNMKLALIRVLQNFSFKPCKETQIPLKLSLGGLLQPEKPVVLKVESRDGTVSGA
# Measurement description: Inhibition of CYP3A-catalyzed midazolam 1'-hydroxylation in pooled human liver microsomes
# Type: in vitro ADME
# Cond: human, pooled human liver microsomes, probe midazolam (5 µM); substrate midazolam 5 µM; pooled HLMs; read-out: IC50, P450 3A
Catalogue of IC50 at 10 min readings, one per entry.
Answer with the number, then the unit.

Use the examples below as a reference point.
>>> measurement("O=c1cc(-c2ccc(O)cc2)oc2c(-c3c(O)cc(O)c4c(=O)cc(-c5ccc(O)cc5)oc34)c(O)cc(O)c12")
"1500 nM"
>>> measurement("O=c1cc(-c2ccc(O)c(-c3c(-c4ccc(O)cc4)oc4cc(O)cc(O)c4c3=O)c2)oc2cc(O)cc(O)c12")
"1200 nM"
>>> measurement("O=C1CC(c2cc(-c3c(O)ccc4c(=O)cc(-c5ccc(O)cc5)oc34)c(O)cc2O)Oc2cc(O)cc(O)c21 (stereo not shown)")
"2700 nM"

Param readout = IC50 at 10 min; param system = CYP3A (Homo sapiens); param query = O=c1cc(-c2ccc(O)c(-c3c(O)cc4oc(-c5ccc(O)cc5)cc(=O)c4c3O)c2)oc2cc(O)cc(O)c12 ; response: value
1200 nM

====

# Test target: CYP2C8 (Homo sapiens)
# Sequence (P10632 1-490): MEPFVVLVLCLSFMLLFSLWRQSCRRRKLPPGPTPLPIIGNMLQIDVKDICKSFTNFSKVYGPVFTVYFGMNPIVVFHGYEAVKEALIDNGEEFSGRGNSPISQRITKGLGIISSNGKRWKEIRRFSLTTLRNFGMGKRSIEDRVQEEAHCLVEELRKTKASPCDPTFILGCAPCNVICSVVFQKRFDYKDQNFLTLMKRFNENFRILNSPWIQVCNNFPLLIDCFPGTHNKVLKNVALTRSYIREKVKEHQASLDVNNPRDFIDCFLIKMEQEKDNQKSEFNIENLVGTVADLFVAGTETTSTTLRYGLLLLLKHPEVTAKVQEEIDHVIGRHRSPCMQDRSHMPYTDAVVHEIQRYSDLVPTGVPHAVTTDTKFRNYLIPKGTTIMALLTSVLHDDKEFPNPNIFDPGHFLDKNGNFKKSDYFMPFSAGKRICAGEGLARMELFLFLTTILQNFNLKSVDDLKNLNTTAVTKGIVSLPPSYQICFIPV
# Measurement description: Inhibition of CYP2C8-catalyzed amodiaquine N-deethylation in pooled human liver microsomes
# Type: in vitro ADME
# Design: incubation mixtures containing pooled human liver microsomes (HLMs, XTreme 200, XenoTech); tissue XenoTech XTreme 200; host or cells: pooled human liver microsomes
# Cond: substrate amodiaquine 1 µM; pooled HLMs 0.25 mg/mL; read-out: IC50, P450 2C8
Readout: pIC50
Kindly note that pIC50 refers to -log10 of the concentration in mol/L and answer with the value alone.

Use the examples below as a reference point.
>>> measurement("O=c1cc(-c2ccc(O)c(-c3c(-c4ccc(O)cc4)oc4cc(O)cc(O)c4c3=O)c2)oc2cc(O)cc(O)c12 [taiwaniaflavone]")
6.92
>>> measurement("O=C1CC(c2cc(-c3c(O)ccc4c(=O)cc(-c5ccc(O)cc5)oc34)c(O)cc2O)Oc2cc(O)cc(O)c21 (centres unmarked) [selamariscina A]")
7.72
>>> measurement("O=c1cc(-c2ccc(O)c(-c3c(O)cc(O)c4c(=O)cc(-c5ccc(O)cc5)oc34)c2)oc2cc(O)cc(O)c12 [amentoflavone]")
7.08

Any idea what pIC50 was measured for O=c1cc(-c2ccc(O)cc2)oc2c(-c3c(O)cc(O)c4c(=O)cc(-c5ccc(O)cc5)oc34)c(O)cc(O)c12 [cupressuflavone] ?
7.08

Any idea what pIC50 was measured for O=c1cc(-c2ccc(O)c(-c3c(O)cc4oc(-c5ccc(O)cc5)cc(=O)c4c3O)c2)oc2cc(O)cc(O)c12 [robustaflavone] ?
7.08

====

# Test target: CYP2C9 (Homo sapiens)
# Measurement description: Inhibition of CYP2C9-catalyzed tolbutamide 4-hydroxylation in human liver microsomes
# Type: in vitro ADME
# Design: incubation mixtures containing pooled human liver microsomes (HLMs, XTreme 200, XenoTech); tissue XenoTech XTreme 200; host or cells: pooled human liver microsomes
# Cond: HLMs; average ± standard error, triplicate
Readout: Ki (nM)
Your answer is read as nM, so omit the unit and give the number.

Any idea what Ki was measured for O=C1CC(c2cc(-c3c(O)ccc4c(=O)cc(-c5ccc(O)cc5)oc34)c(O)cc2O)Oc2cc(O)cc(O)c21 (stereo not shown) ?
65

====

# System: CYP2C8 and CYP2C9 versus seven other P450s (CYP1A2, 2A6, 2B6, 2C19, 2D6, 2E1, 3A)
# Measurement description: Nine-P450 cocktail inhibition in human liver microsomes, statements on the other P450 isoforms
# Format: in vitro ADME
# Cond: human, pooled human liver microsomes; amodiaquine and diclofenac activities versus seven other P450s
Readout: selectivity ratio at 10 min

Any idea what selectivity ratio at 10 min was measured for O=C1CC(c2cc(-c3c(O)ccc4c(=O)cc(-c5ccc(O)cc5)oc34)c(O)cc2O)Oc2cc(O)cc(O)c21 (stereo not shown) ?
> 50

====

# Test target: CYP3A (Homo sapiens)
# Measurement description: Inhibition of CYP3A-catalyzed midazolam 1'-hydroxylation in pooled human liver microsomes
# Type: in vitro ADME
# Cond: human, microsomes
Readout: IC50 at 10 min

>>> measurement("CC(C)(O)c1ccccc1CC[C@@H](SCC1(CC(=O)O)CC1)c1cccc(/C=C/c2ccc3ccc(Cl)cc3n2)c1 [montelukast, reference compound]")
"> 50000 nM"

Any idea what IC50 at 10 min was measured for O=c1cc(-c2ccc(O)c(-c3c(O)cc(O)c4c(=O)cc(-c5ccc(O)cc5)oc34)c2)oc2cc(O)cc(O)c12 [amentoflavone] ?
1300 nM

Where these numbers come from: paper PMC7238120
